Experiment: Cytotoxicity against human H8 cells after 48 hrs by MTT assay
Format: cell-based
OBSERVABLE: IC50 (µM)

# COMPOUND, OBSERVABLE, MEASURED
measured = [
    ("COc1cc([C@@H]2c3cc4c(cc3[C@@H](C3CC(c5ccncc5)=CN3)[C@H]3COC(=O)[C@H]23)OCO4)cc(OC)c1O (stereo partly drawn)", "IC50", 23.6),
    ("COc1cc([C@@H]2c3cc4c(cc3[C@@H](c3nc5cc(-c6ccccc6)ccc5s3)[C@H]3COC(=O)[C@H]23)OCO4)cc(OC)c1O", "IC50", 47.6),
    ("COc1cc([C@@H]2c3cc4c(cc3[C@@H](c3nc5cc(C(F)(F)F)ccc5o3)[C@H]3COC(=O)[C@H]23)OCO4)cc(OC)c1O", "IC50", 81),
]

----------
Test system: A549
Assay: Cytotoxicity against human A549 cells after 48 hrs by MTT assay
Assay type: functional, cell-based
Conditions: A549, 48 h
pIC50: −log10 of the molar value.
Give YES when the value for pIC50 is at least 5. Give NO when it is less.

# COMPOUND, ASSIGNED CLASS
rows = [
    ("COc1cc([C@@H]2c3cc4c(cc3[C@@H](c3nc5cc(-c6ccccc6)ccc5o3)[C@H]3COC(=O)[C@H]23)OCO4)cc(OC)c1O", "NO"),
    ("COc1cc([C@@H]2c3cc4c(cc3[C@@H](c3nc5cc(C)ccc5s3)[C@H]3COC(=O)[C@H]23)OCO4)cc(OC)c1O", "YES"),
    ("COc1cc([C@@H]2c3cc4c(cc3[C@@H](C3CC(S)NN3c3ccccc3F)[C@H]3COC(=O)[C@H]23)OCO4)cc(OC)c1O (stereo not given in full)", "YES"),
    ("COc1cc([C@@H]2c3cc4c(cc3[C@@H](c3nc5c(F)c(F)c(F)c(F)c5s3)[C@H]3COC(=O)[C@H]23)OCO4)cc(OC)c1O", "YES"),
    ("COc1cc([C@@H]2c3cc4c(cc3[C@@H](C3CC(c5ccncc5F)=CN3)[C@H]3COC(=O)[C@H]23)OCO4)cc(OC)c1O (stereo not given in full)", "YES"),
    ("COc1cc([C@@H]2c3cc4c(cc3[C@@H](c3nc5cc(C(F)(F)F)ccc5o3)[C@H]3COC(=O)[C@H]23)OCO4)cc(OC)c1O", "YES"),
    ("COc1cc([C@@H]2c3cc4c(cc3[C@@H](c3nc5c(F)c(F)c(F)c(F)c5o3)[C@H]3COC(=O)[C@H]23)OCO4)cc(OC)c1O", "YES"),
    ("COc1cc([C@@H]2c3cc4c(cc3[C@@H](c3nc5cnc(F)cc5[nH]3)[C@H]3COC(=O)[C@H]23)OCO4)cc(OC)c1O", "NO"),
    ("COc1cc([C@@H]2c3cc4c(cc3[C@@H](O[C@@H]3O[C@@H]5CO[C@@H](C)O[C@H]5[C@H](O)[C@H]3O)[C@H]3COC(=O)[C@H]23)OCO4)cc(OC)c1O [ETOPOSIDE]", "NO"),
    ("COc1cc([C@@H]2c3cc4c(cc3[C@@H](c3nc5cc(C(F)(F)F)ccc5s3)[C@H]3COC(=O)[C@H]23)OCO4)cc(OC)c1O", "YES"),
    ("COc1cc([C@@H]2c3cc4c(cc3[C@@H](c3nc5ccccc5s3)[C@H]3COC(=O)[C@H]23)OCO4)cc(OC)c1O", "YES"),
    ("COc1cc([C@@H]2c3cc4c(cc3[C@@H](c3nc5ccccc5o3)[C@H]3COC(=O)[C@H]23)OCO4)cc(OC)c1O", "NO"),
    ("COc1cc([C@@H]2c3cc4c(cc3[C@@H](O)[C@H]3COC(=O)[C@H]23)OCO4)cc(OC)c1O [4'-DEMETHYLEPIPODOPHYLLOTOXIN]", "NO"),
    ("COc1cc([C@@H]2c3cc4c(cc3[C@@H](c3nc5cc(OC(F)F)ccc5[nH]3)[C@H]3COC(=O)[C@H]23)OCO4)cc(OC)c1O", "YES"),
]

The measured values listed here are drawn from ChEMBL document CHEMBL4265964.
